# Stated conditions: buffer; pH 7.4; 200.0 µM
Tick 1 (yes) if solubility kinetic is 0.02 mg/mL or greater. Tick 0 (no) if solubility kinetic is less than 0.02 mg/mL.

// known answers, use as guide
O=C(O)C1C2CCC(C2)C1C(=O)NCCc1ccccc1 (stereo unspecified); 1 (yes)
Cc1ccc(NC(=O)CNC(=O)OCc2ccccc2)cc1C; 0 (no)
CC(=O)Nc1ccc(/C=C/C(=O)c2ccc3c(c2)OCCO3)cc1; 0 (no)
COc1ccc(C(=O)c2nc3ccccc3n2C(C)C)cc1; 1 (yes)
O=C(Nc1ccc(OCC(=O)N2CCOCC2)cc1)c1ccccc1F; 1 (yes)
CCCCn1c(N)c(N(C)C(=O)c2c(C)nn(-c3ccccc3)c2C)c(=O)[nH]c1=O; 1 (yes)
Cc1ccc(CNCCc2ccc(F)cc2)s1; 1 (yes)
COc1ccc(-c2csc(NC(=O)c3ccc(C(C)(C)C)cc3)c2C(=O)O)cc1; 1 (yes)
Cc1nn(C)c(C)c1NC(=O)COc1ccc(F)cc1Br; 1 (yes)
CC(C)CCC1(CCNC(=O)c2cccs2)CCOC(C)(C)C1 (stereo unspecified); 1 (yes)

*Q* Does Cc1ccc(CN2CCCC(C(=O)c3ccc4c(c3)OCO4)C2)cc1C (stereo unspecified) have a reported solubility kinetic of at least 0.02 mg/mL?
*A* 1 (yes)

###

# Stated conditions: buffer; pH 7.4; 200.0 µM
Quantity kind: solubility kinetic

# count of solved cases: 2
CC(=O)c1cccc(NC(=O)COc2cc(C)on2)c1; > 41.1 µg/mL
CC(=O)Nc1cccc(NC(=O)C2C3C=CC(C3)C2C(=O)O)c1 (stereo not drawn); > 47.2 µg/mL

Could you now consider this next compound?
Record "O=c1oc2ccccc2c(NCCO)c1[N+](=O)[O-]" . Reported solubility kinetic: > 37.5 µg/mL

###

# Stated conditions: buffer; pH 7.4; 200.0 µM
Quantity kind: solubility kinetic

# count of solved cases: 3
CC(=O)c1c(C)[nH]c(C(=O)COC(=O)Cc2ccccc2F)c1C; > 49.7 µg/mL
COc1ccc(NC(=O)c2ccc3ccccc3c2OC)cc1; < 0.7 µg/mL
Cc1ccccc1C(C)NS(=O)(=O)c1ccc2c(c1)OCCO2 (stereo unspecified); > 50 µg/mL

Record CCOc1ccc2nc(SCC(=O)NCC3CCCO3)sc2c1 (stereo unspecified) . Reported solubility kinetic: > 52.9 µg/mL

Record "O=C(Nc1cccc(S(=O)(=O)NC2=NCCC2)c1)c1ccccc1F" . Reported solubility kinetic: > 54.2 µg/mL

Record "Cl.NC(Cc1ccccc1)Cc1ccccc1" . Reported solubility kinetic: > 37.2 µg/mL

###

# Stated conditions: buffer; pH 7.4; 200.0 µM
Reported values of solubility kinetic for individual entries

# count of solved cases: 2
CC(C)NC(=O)CCCc1c[nH]c2ccccc12; > 36.7 µg/mL
Cc1ccc(C(=O)O/N=C(\N)c2ccc(C(F)(F)F)cn2)cc1; < 0.2 µg/mL

Could you now consider this next compound?
Record O=C(COC(=O)C1CCCO1)Nc1nc(-c2ccc(F)cc2)cs1 (stereo not drawn) . Reported solubility kinetic: > 52.6 µg/mL

###

Reported values of solubility kinetic for individual entries
# Stated conditions: buffer; pH 7.4; 200.0 µM

# count of solved cases: 3
O=C(NC1CCCCNC1=O)c1ccco1 (centres undefined); > 33.3 µg/mL
Cl.O=[N+]([O-])c1ccc(OCC(O)CNC2CCCC2)cc1 (centres undefined); > 47.5 µg/mL
Cc1cc(C(=O)N2CCCC(Nc3ccc(F)cc3)C2)n(C)n1 (centres undefined); > 47.5 µg/mL

Could you now consider this next compound?
Record "Cc1ccc(NC(=O)Cn2c(C)csc2=O)cc1" . Reported solubility kinetic: > 39.3 µg/mL
